# Test system: umbrella sedge (Cyperus difformis)
# Assay Summary: Test B flooded paddy test
# Assay type: in vivo
# Conditions: 250 g ai/ha; flooded paddy test; visual rating on 0 to 100 scale (0 no effect, 100 complete control) after 13 to 15 days
I'd appreciate it if you marked entries Fulfilled when Plant response rating, Flood, Sedge, Umbrella is lower than 80 and Not fulfilled when it is not.

Answered examples (8):
• Cc1c(Cl)cccc1-n1c(-c2ccccc2)ncc(C(=O)C2=C(O)CCCC2=O)c1=O = Not fulfilled
• C#Cc1ccc(-c2ncc(C(=O)C3=C(O)CCCC3=O)c(=O)n2C2CCCCC2)cc1 = Not fulfilled
• O=C1CCCC(O)=C1C(=O)c1cnc(C2CCCCC2)n(-c2ccccc2)c1=O = Fulfilled
• CCCc1ncc(C(=O)C2=C(O)CCCC2=O)c(=O)n1Cc1ccccc1 = Fulfilled
• Cc1cc(-n2c(-c3ccccc3)ncc(C(=O)C3=C(O)CCCC3=O)c2=O)ccc1F = Not fulfilled
• Cc1cc(C)cc(-n2c(-c3ccccc3)ncc(C(=O)C3=C(O)CCCC3=O)c2=O)c1 = Not fulfilled
• O=C1CCCC(O)=C1C(=O)c1cnc(-c2cccc(F)c2)n(C2CCCCC2)c1=O = Not fulfilled
• COCCn1c(-c2cccc(C)c2)ncc(C(=O)C2=C(O)CCCC2=O)c1=O = Not fulfilled

Let's switch to this compound now.
Please check: Plant response rating, Flood, Sedge, Umbrella for CCCCc1ncc(C(=O)C2=C(O)CCCC2=O)c(=O)n1-c1cccc(C)c1 , strictly under 80 or not? Fulfilled

* * *

# Test system: velvetleaf (Abutilon theophrasti)
# Assay Summary: Test A pre-/postemergence plant response
# Format: in vivo
# Conditions: Preemergence, 125 g ai/ha; 0 to 100 scale, 0 = no effect, 100 = complete control
Rule: Plant response rating, Velvetleaf below 70 gives 1 (yes). Equal to or above 70 gives 0 (no).

As a guide, the following entries are already answered.
* O=C1CCCC(O)=C1C(=O)c1cnc(-c2ccccc2Cl)n(-c2ccccc2)c1=O [Compound 35] | 1 (yes)
* CCn1c(Cc2ccccc2)ncc(C(=O)C2=C(O)CCCC2=O)c1=O [Compound 200] | 1 (yes)
* C=CCn1c(-c2ccccc2)ncc(C(=O)C2=C(O)CCCC2=O)c1=O [Compound 23] | 1 (yes)
* Cc1ccc(F)cc1-n1c(-c2cccc(Cl)c2)ncc(C(=O)C2=C(O)CCCC2=O)c1=O [Compound 157] | 1 (yes)
* CCCCn1c(-c2cccc(C)c2)ncc(C(=O)C2=C(O)CCCC2=O)c1=O [Compound 116] | 1 (yes)
* O=C1CCCC(O)=C1C(=O)c1cnc(-c2ccccc2)n(CC2CCCO2)c1=O (stereo not shown) [Compound 59] | 0 (no)
* COCCOCCn1c(-c2cc(F)cc(F)c2)ncc(C(=O)C2=C(O)CCCC2=O)c1=O [Compound 171] | 0 (no)
* COCCn1c(-c2ccsc2)ncc(C(=O)C2=C(O)C3CCC(C3)C2=O)c1=O (stereo not shown) [Compound 228] | 0 (no)

Is the reported Plant response rating, Velvetleaf for CCCCn1c(-c2cc(F)cc(F)c2)ncc(C(=O)C2=C(O)CCCC2=O)c1=O [Compound 121] strictly below 70? 0 (no)

* * *

Each entry below carries its reported Plant response rating, Bermudagrass.
# System: bermudagrass (Cynodon dactylon)
# Assay Summary: Test B pre-/postemergence plant response
# Assay type: in vivo
# Conditions: Postemergence, 62 g ai/ha; scale 0 to 100 (0 no effect, 100 complete control)
Just the number, please.

* CCCCn1c(-c2cccc(F)c2)ncc(C(=O)C2=C(O)C3CCC(C3)C2=O)c1=O (stereo not shown) [Compound 237] | 98

Bench note: what Plant response rating, Bermudagrass did CCc1ccccc1-n1c(-c2ccccc2)ncc(C(=O)C2=C(O)CCCC2=O)c1=O [Compound 255] show? 95

Value lookup for Plant response rating, Bermudagrass; key = Cc1cc(-n2c(-c3cccc(F)c3)ncc(C(=O)C3=C(O)CCCC3=O)c2=O)ccc1F [Compound 191] 100

Consider the compound shown here: O=C(C1=C(O)C2CCC(C2)C1=O)c1cnc(-c2ccsc2)n(CC2CCCO2)c1=O (stereo not shown) [Compound 229] What is its recorded Plant response rating, Bermudagrass? 80

* * *

# Test system: winter barley (Hordeum vulgare)
# Assay Summary: Test B postemergence plant response
# Type: in vivo
# Conditions: Postemergence, 250 g ai/ha; scale 0 to 100 (0 no effect, 100 complete control)
# Text: […] Treated plants and controls were maintained in a greenhouse for 13 to 15 days, after which time all treated plants were visually evaluated and compared to controls. […]
Readout: Plant response rating, Barley
Please state the value as a number alone, without comment.

Would you please look over these solved cases?
* COCCn1c(-c2cccc(F)c2)ncc(C(=O)C2=C(O)CCCC2=O)c1=O [Compound 123] | 50
* O=C1CCCC(O)=C1C(=O)c1cnc(-c2ccccc2Br)n(-c2ccccc2)c1=O [Compound 71] | 5
* COCC(C)n1c(-c2ccccc2)ncc(C(=O)C2=C(O)CCCC2=O)c1=O (stereo not shown) [Compound 107] | 30

Which measured Plant response rating, Barley value corresponds to CC(C)CC(=O)OC1=C(C(=O)c2cnc(-c3ccccc3)n(-c3ccccc3)c2=O)C(=O)CCC1 [Compound 83] ? 5

* * *

Plant response rating, Canarygrass by entry:
# Tested on: canarygrass (Phalaris minor)
# Assay Summary: Test B postemergence plant response
# Type: in vivo
# Conditions: Postemergence, 125 g ai/ha; visual rating after 13 to 15 days, scale 0 (no effect) to 100 (complete control)
# Description: […] Treated plants and controls were maintained in a greenhouse for 13 to 15 days, after which time all treated plants were visually evaluated and compared to controls. […]
No unit in the answer, only the number.

* CCCc1ncc(C(=O)C2=C(O)CCCC2=O)c(=O)n1-c1ccccc1C | 5
* O=C1CCCC(O)=C1C(=O)c1cnc(-c2ccccc2)n(CC2CCCO2)c1=O (stereo not shown) | 50
* O=C1CCCC(OC(=O)C2CC2)=C1C(=O)c1cnc(-c2ccccc2)n(-c2ccccc2)c1=O | 80
* CCCCc1ncc(C(=O)C2=C(O)CCCC2=O)c(=O)n1-c1ccc(C)cc1 | 0
* CCCCc1ncc(C(=O)C2=C(O)CCCC2=O)c(=O)n1-c1cccc(C)c1 | 0

Tell me the measured Plant response rating, Canarygrass of Cc1ccccc1-n1c(-c2cccc(Cl)c2)ncc(C(=O)C2=C(O)CCCC2=O)c1=O , please. 50

Value lookup for Plant response rating, Canarygrass; key = Cc1ccccc1-n1c(-c2ccccc2)ncc(C(=O)C2=C(O)CCCC2=O)c1=O 5

* * *

# System: giant foxtail (Setaria faberii)
# Assay Summary: Test A pre-/postemergence plant response
# Format: in vivo
# Conditions: Postemergence, 500 g ai/ha; 0 to 100 scale, 0 = no effect, 100 = complete control; approx. ten days
Readout: Plant response rating, Foxtail, Giant
I only need the number, thanks.

// worked examples, Plant response rating, Foxtail, Giant included
- COCCCn1c(-c2cccc(Br)c2)ncc(C(=O)C2=C(O)CCCC2=O)c1=O: 90
- CCCn1c(-c2ccc3ccccc3c2)ncc(C(=O)C2=C(O)CCCC2=O)c1=O: 70
- CCCCn1c(-c2cccc(C)c2)ncc(C(=O)C2=C(O)CCCC2=O)c1=O: 90

Reported Plant response rating, Foxtail, Giant for giant foxtail (Setaria faberii), given O=C1CCCC(O)=C1C(=O)c1cnc(-c2ccccc2)n(-c2ccccc2F)c1=O ? 90

Under giant foxtail (Setaria faberii): Plant response rating, Foxtail, Giant value of O=C1CCCC(O)=C1C(=O)c1cnc(-c2ccccc2Cl)n(-c2ccccc2)c1=O ? 80

* * *

# Tested on: green foxtail (Setaria viridis)
# Assay Summary: Test B pre-/postemergence plant response
# Assay type: in vivo
# Conditions: Postemergence, 125 g ai/ha; scale 0 to 100 (0 no effect, 100 complete control)
Readout: Plant response rating, Foxtail, Green
// response body must contain only the number

Can you share its Plant response rating, Foxtail, Green? I mean this compound: Cc1ccc(Cl)cc1-n1c(-c2cccc(F)c2)ncc(C(=O)C2=C(O)CCCC2=O)c1=O 85

Which Plant response rating, Foxtail, Green value belongs to CCCn1c(-c2ccc(F)cc2)ncc(C(=O)C2=C(O)CCCC2=O)c1=O ? 90

What value of measured Plant response rating, Foxtail, Green is listed for Cc1cc(-n2c(-c3cccc(F)c3)ncc(C(=O)C3=C(O)CCCC3=O)c2=O)ccc1F ? 80

Given the compound O=C(C1=C(O)C2CCC(C2)C1=O)c1cnc(-c2ccsc2)n(CC2CCCO2)c1=O (stereo not shown) , what is its reported Plant response rating, Foxtail, Green? 80

Returns the measured Plant response rating, Foxtail, Green for the input compound. Input: CCCn1c(-c2cc(C)cc(C)c2)ncc(C(=O)C2=C(O)CCCC2=O)c1=O 85

May I ask what Plant response rating, Foxtail, Green has been recorded for CCCCn1c(-c2cccc(Cl)c2)ncc(C(=O)C2=C(O)CCCC2=O)c1=O ? 80

Find the recorded Plant response rating, Foxtail, Green belonging to O=C1CCCC(O)=C1C(=O)c1cnc(-c2cccs2)n(C2CCCCC2)c1=O and report it. 90

I'd like to know its Plant response rating, Foxtail, Green. The compound in question is CCc1ccc(-n2c(-c3ccccc3)ncc(C(=O)C3=C(O)CCCC3=O)c2=O)cc1 90

Requested read-out: Plant response rating, Foxtail, Green. Entry: CCCn1c(-c2cccc(Br)c2)ncc(C(=O)C2=C(O)CCCC2=O)c1=O 90

Give the measured Plant response rating, Foxtail, Green of CCCn1c(-c2cccc(Cl)c2)ncc(C(=O)C2=C(O)CCCC2=O)c1=O . 45

FYI, the data here is from patent US8952024B2.
